Listing: ΔTm of selected molecules
- Tested on: Poly(dA-dU)oligonucleotide
- assay-text: Binding affinity to polyA-polyU dsRNA (unknown origin) assessed as change in melting temperature at 0.3 ratio of compound to RNA by spectrophotometric analysis
- Format: nucleic-acid assay
Note: unit °C is implicit; provide only the numeric part.

The examples below pair each entry with its known result.
substance-smiles: Cl.Cl.N=C(N)c1ccc2[nH]c(-c3ccc(Cn4cc(COc5ccc(OCc6cn(Cc7ccc(-c8nc9cc(C(=N)N)ccc9[nH]8)o7)nn6)cc5)nn4)o3)nc2c1
readout-value: 0
//
substance-smiles: CC(C)NC(=N)c1ccc2[nH]c(-c3ccc(Cn4cc(CCCc5cn(Cc6ccc(-c7nc8cc(C(=N)NC(C)C)ccc8[nH]7)o6)nn5)nn4)o3)nc2c1.Cl.Cl
readout-value: 0.5
//
substance-smiles: CC(C)NC(=N)c1ccc2[nH]c(-c3ccc(Cn4cc(COc5ccc(-c6ccc(OCc7cn(Cc8ccc(-c9nc%10cc(C(=N)NC(C)C)ccc%10[nH]9)o8)nn7)cc6)cc5)nn4)o3)nc2c1
readout-value: 0

Task: Would you kindly share the measured ΔTm for c1ccc2[nH]c(-c3ccc(Cn4cc(COc5ccc(OCc6cn(Cc7ccc(-c8nc9ccccc9[nH]8)o7)nn6)cc5)nn4)o3)nc2c1 ?
Result: 0

Task: Try Fc1ccc2[nH]c(-c3ccc(Cn4cc(CCCc5cn(Cc6ccc(-c7nc8cc(F)ccc8[nH]7)o6)nn5)nn4)o3)nc2c1 next.
Result: 1.3
